// data source = patent US20180016324A1

- assayed system: ZIKV envelope glycoprotein (E) of strain PRVABC59 (Puerto Rico 2015) (Zika virus)
- experiment summary: cell-based or functional assay
assay endpoint: neutralization IC50, Vero cells (pM)
State the answer as a number, implicitly in pM.

INSERT INTO measurements (binder, meas_value) VALUES
  ('H4H25633P (antibody, V domains shown) VH: EVQLVESGGGLVQPGRSLRLSCAASGFTFDDYAIHWVRQAPGKGLEWVSGISWNSGYLGYADSVKGRFTISRDNAKNSLYLQMNSLRAEDTAFYYCAKDVAWGSVRHVFEIWGQGTMVTVSS VL: EIVLTQSPGTLSLSPGERATLSCRASQTITGNQLAWYQQKPGQAPRLLIYFTSSRATGIPDRFSGSGSGTDFSLTISRLEPEDFAVYFCQQFGYSPWTFGQGTKVEIK', 652),
  ('H4H25641P (antibody, V domains shown) VH: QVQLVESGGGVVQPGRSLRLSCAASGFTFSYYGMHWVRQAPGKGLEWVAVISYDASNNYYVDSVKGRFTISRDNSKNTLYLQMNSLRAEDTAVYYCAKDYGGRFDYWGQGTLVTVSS VL: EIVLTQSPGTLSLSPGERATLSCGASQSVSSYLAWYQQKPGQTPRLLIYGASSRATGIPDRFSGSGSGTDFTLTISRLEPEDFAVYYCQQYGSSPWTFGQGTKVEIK', 356);

# context switch: different binder, same neutralization IC50, Vero cells
May I ask what neutralization IC50, Vero cells has been recorded for H4H25591P (antibody, V domains shown) VH: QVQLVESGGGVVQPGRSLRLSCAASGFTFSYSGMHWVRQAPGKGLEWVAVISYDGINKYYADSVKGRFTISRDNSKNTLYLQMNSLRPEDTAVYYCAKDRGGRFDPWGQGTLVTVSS VL: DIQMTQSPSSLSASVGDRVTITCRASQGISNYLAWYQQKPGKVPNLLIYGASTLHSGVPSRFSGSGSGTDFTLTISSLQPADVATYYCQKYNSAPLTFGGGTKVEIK ?
254
